System: Saccharomyces cerevisiae BY4741 SeMeCo community
Procedure details: z-score of subpopulation abundance vs DMSO median, subpopulation auxotrophic for HLU; higher = larger share of this subpopulation than in DMSO controls
Test context: 10 µM; 24 h; SM minimal medium; subpopulation (auxotrophy): HLU
Structures can show the parent of a compound that is named as a salt.
Hi, to clarify the labels: fulfilled covers z-score of subpopulation abundance from 0.3 upward, not fulfilled covers anything below 0.3.

Compound | Class
CCCSc1ccc2[nH]c(NC(=O)OC)nc2c1 [Albendazole] | fulfilled
Cc1cc(O)c(C(=O)N[C@@H](C(=O)N[C@@H]2C(=O)N3C(C(=O)O)=C(CSc4nnnn4C)CS[C@H]23)c2ccc(O)cc2)cn1 [Cefpiramide sodium] | not fulfilled
Cc1c(OCC(F)(F)F)ccnc1C[S+]([O-])c1nc2ccccc2[nH]1 (stereo not drawn) [Lansoprazole] | fulfilled
Cn1c([N+](=O)[O-])cnc1COC(N)=O [Ronidazole] | not fulfilled
O=C1c2cccc3c2[C@H](CCC3)CN1[C@@H]1CN2CCC1CC2 [Palonosetron HCl] | not fulfilled
CC(=O)OC(C)C[N+](C)(C)C (stereo not drawn) [Methacholine chloride] | fulfilled
COc1cc(NS(=O)(=O)c2ccc(N)cc2)ncn1 [Sulfamonomethoxine] | fulfilled
C[C@@H](O)[C@H]1C(=O)N2C(C(=O)[O-])=C(SC3Cn4cnc[n+]4C3)[C@H](C)[C@H]12 (stereo partly drawn) [Biapenem] | not fulfilled
